# PROTOCOL_TEXT: small-molecule microarray binders of probe aXIP, primary screen, biochemical, NeuroSMM set, 635/667 nm fluorescence (AID 1119);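 note: probe is the protein aXip251-270 applied at 1 µg/mL to compound-printed slides; binding of probe to printed compounds measured as 667 nm fluorescence plus signal to noise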
# EXPERIMENTAL_PARAMETERS: higher = more signal, called active from +8 up or from −8 down
A collection of compounds and their measured composite Z-score
ASSAY_METRIC: composite Z-score

COMPOUND	RESULT
NC(=O)[C@@H]1[C@H]2C(=O)O[C@H](c3ccccc3)[C@H](c3ccccc3)N2[C@H](c2ccc(O)cc2)[C@@]12C(=O)Nc1ccc(C#CC3(O)CCCCCC3)cc12	0.339
CO[C@H]1O[C@H](CO)[C@@H](OC(=O)Nc2ccc(Br)cc2)[C@H](OC(=O)c2cc3ccccc3[nH]2)[C@H]1OC(=O)c1cc2ccccc2[nH]1	0.907
COC(=O)[C@@]1(Cc2ccc(OC)cc2)[C@H]2c3cc(C(=O)N(C)C)n(Cc4cccc5ccccc45)c3C[C@H]2CN1C(=O)c1ccccc1	0.0388
CS(=O)(=O)CCOC(=O)C1=CC(CCCO)=CC(c2ccc(CN3CCCC3)cc2)N(Cc2cc3c(cc2Br)OCO3)C=C1C(=O)OCCS(C)(=O)=O (centres undefined)	1.09
[N-]=[N+]=NCc1ccccc1[C@H]1OC(c2ccc(OCCCO)cc2)=N[C@@]1(Cc1ccccc1)C(=O)NCc1ccccc1	-0.157
COc1cc2c(cc1OC)CN(C(=O)[C@@H]1[C@H]3C(=O)O[C@H](c4ccccc4)[C@H](c4ccccc4)N3[C@H](c3ccc(O)cc3)[C@@]13C(=O)Nc1ccc(C#CC4(O)CCCCCC4)cc13)CC2	0.841
C=CCOC(=O)[C@H]1[C@@H]2C(=O)O[C@@H](c3ccccc3)[C@@H](c3ccccc3)N2[C@@H](c2ccc(OCCOC(=O)[C@H]3C[C@H]4C(=O)N[C@@H](CC(C)C)C(=O)N4[C@H]3c3ccc(O)cc3)cc2)[C@]12C(=O)Nc1ccc(I)cc12	0.672
COCC(=C=CC[C@@H](O)c1ccccc1OCCO)C[C@@H](O)c1cc(Cl)cc(Cl)c1O	0.103
CN(C)CCCC[C@@H]1NC(=O)[C@H]2C[C@@H](C(=O)NCCCCCNC(=O)CS)[C@@H](c3cccc(OCCO)c3)N2C1=O	-0.114
COCCCN1C(=O)[C@@]2(c3ccc([N+](=O)[O-])cc3)CC(=O)N(C3CCCCC3)[C@@H]2c2ccc(CO)cc21	0.0221
C=CCNC(=O)[C@H]1[C@@H]2C(=O)O[C@@H](c3ccccc3)[C@@H](c3ccccc3)N2[C@@H](c2ccc(OCCO)cc2)[C@]12C(=O)Nc1ccc(C#CC3=CCCCC3)cc12	0.0758
O=C1NC(=O)C2C1C=CC(C(O)Cc1ccccc1)N2Nc1ccc(Cl)cc1Cl (centres undefined)	-0.082
CC(C)N1C(=O)c2ccccc2[C@](C)(C(=O)NCc2ccccc2)[C@@H]1c1ccc(CO)cc1	1.32
COc1ccc([Si](C)(C)[C@H]2[C@H](CCO)O[C@@]3(C(=O)N(C)c4c(Br)cc(C)cc43)[C@@H]2C)cc1	-0.303

---

# PROTOCOL_TEXT: E. coli acrAB mutant growth effects, primary screen, E. coli filamentation inducers, strain DRC39, OD650, 24 h (AID 1178);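 note: growth measured as culture turbidity by optical density at 650 nm; test concentration not given here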
# EXPERIMENTAL_PARAMETERS: higher = more signal, called active from +8 up or from −8 down
The following compounds are shown together with reported z-score values.

SMILES_REPRESENTATION	z-score
O=C1O[C@H](c2ccccc2)[C@H](c2ccccc2)N2[C@H]1[C@@H](C(=O)Nc1nc3ccccc3s1)[C@]1(C(=O)Nc3ccc(C#CC4(O)CCCCCC4)cc31)[C@H]2c1ccc(OCCO)cc1	-0.34
COCCOC(=O)N1C(=O)[C@@]2(c3cc(C#Cc4ccc(OC)cc4)ccc31)[C@H](c1ccc(O)cc1)N1[C@H](c3ccccc3)[C@H](c3ccccc3)OC(=O)[C@H]1[C@@H]2C(=O)NC[C@H](O)c1ccccc1	0.351
C=C(CCCC)C(=O)CC[C@@H](OC(=O)c1cccnc1)c1ccc(CO)o1	0.186
